# measurement-target: IRE1α (Homo sapiens (Human), UniProt O75460, D688N)
# Sequence (O75460 547-977 D688N): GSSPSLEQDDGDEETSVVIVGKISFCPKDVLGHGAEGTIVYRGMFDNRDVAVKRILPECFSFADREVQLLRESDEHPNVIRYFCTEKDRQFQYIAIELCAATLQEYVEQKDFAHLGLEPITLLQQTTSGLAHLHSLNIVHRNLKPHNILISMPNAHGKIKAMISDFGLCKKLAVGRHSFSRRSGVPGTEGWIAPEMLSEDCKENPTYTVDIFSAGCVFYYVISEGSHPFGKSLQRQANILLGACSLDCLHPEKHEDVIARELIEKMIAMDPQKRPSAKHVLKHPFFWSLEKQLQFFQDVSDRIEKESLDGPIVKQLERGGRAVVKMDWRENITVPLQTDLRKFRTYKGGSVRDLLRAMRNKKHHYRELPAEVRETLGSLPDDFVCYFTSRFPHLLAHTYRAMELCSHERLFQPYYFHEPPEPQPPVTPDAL
# procedure-text: IRE1α TR-FRET competition binding assay (IRE1α HTRF)
# condition-parameters: TR-FRET competition binding to kinase domain of IRE1α
Counter-ions that a name gives are not always drawn.
quantity-measured: log10 of IC50 (log10 of the value in nM)
The figures below represent log10 of IC50, where IC50 is stated in nM.

Request: Sample CC(C)n1c(=O)c(-c2cc(F)c(NS(=O)(=O)CC3CC(F)(F)C3)c(F)c2)nc2cnc(N[C@H]3CC[C@H](N(C)C)CC3)nc21 [Example 249] — what was its log10 of IC50?
Response: -0.70

Request: Sample CC(C)n1c(=O)c(-c2ccc(NS(=O)(=O)CCC(F)(F)F)c(F)c2)cc2cnc(N[C@H]3CCC[C@H](N(C)C)C3)nc21 [Compound 104, hydrochloride] — what was its log10 of IC50?
Response: 1.86

Request: Sample CC(C)n1c(=O)c(-c2ccc(NS(=O)(=O)CCC(C)(F)F)c(F)c2)nc2cnc(N[C@@H]3CNC[C@H](CF)C3)nc21 [Compound 77] — what was its log10 of IC50?
Response: -0.10

Request: Sample CC(C)n1c(=O)c(-c2cc(F)c(NS(=O)(=O)CCC(F)(F)F)cc2F)nc2cnc(N[C@H]3CC[C@H](N(C)C)CC3)nc21 [Compound 189] — what was its log10 of IC50?
Response: -0.31

Request: Sample CC(C)n1c(=O)c(-c2ccc(NS(=O)(=O)Cc3ccccc3)c(F)c2)nc2cnc(N[C@@H]3CC[C@@H](N(C)C)[C@H](F)C3)nc21 (stereo in doubt) [Compound 192B] — what was its log10 of IC50?
Response: -1.05

Request: Sample CC(C)n1c(=O)c(-c2ccc(NS(=O)(=O)CC3CC4(CCC4)C3)c(F)c2)nc2cnc(N[C@H]3CC[C@H](N(C)C)CC3)nc21 [Example 260] — what was its log10 of IC50?
Response: -0.70

---

# measurement-target: IRE1α (Homo sapiens (Human), UniProt O75460, D688N)
# procedure-text: IRE1α TR-FRET competition binding assay (IRE1α HTRF)
# condition-parameters: TR-FRET competition binding to kinase domain of IRE1α
Structures can show the parent of a compound that is named as a salt.
quantity-measured: pIC50
pIC50 is defined as minus the log10 of a concentration measured in mol/L.

Request: Sample `CCn1c(=O)c(-c2cc(F)c(NS(=O)(=O)Cc3c(F)cccc3F)c(F)c2F)cc2cnc(N[C@@H]3CNC[C@@H](F)C3)nc21` — what was its pIC50?
Response: 9.15

Request: Sample `CC(C)n1c(=O)c(-c2ccc(F)c(NS(=O)(=O)Cc3ccccc3)c2F)cc2cnc(N[C@H]3CCCNC3)nc21` — what was its pIC50?
Response: 8.66

Request: Sample CC(C)n1c(=O)c(-c2ccc(NS(=O)(=O)c3ccccc3Cl)nc2)nc2cnc(N[C@H]3CC[C@H](N(C)CCF)CC3)nc21 [Compound 188, hydrochloride] — what was its pIC50?
Response: 9.57

Request: Sample `CC(C)n1c(=O)c(-c2ccc(NS(=O)(=O)CC3CC(F)(F)C3)c(F)c2)nc2cnc(N[C@H]3CC[C@H](N(C)CCF)CC3)nc21` — what was its pIC50?
Response: 9.54

Request: Sample `CC(C)n1c(=O)c(-c2ccc(NS(=O)(=O)c3ccccc3Cl)c(F)c2)nc2cnc(N[C@H]3CC[C@H](N(C)C)CC3)nc21` — what was its pIC50?
Response: 9.74

Request: Sample CC(C)n1c(=O)c(-c2c(F)cc(NS(=O)(=O)Cc3ccc(F)cc3)cc2F)cc2cnc(N[C@H]3CC[C@H](N(C)C)CC3)nc21 [Compound 129, hydrochloride] — what was its pIC50?
Response: 10.10

Request: Sample `CC(C)n1c(=O)c(-c2ccc(NS(=O)(=O)CC34CCC(CC3)C4)c(F)c2)nc2cnc(N[C@H]3CC[C@H](N(C)C)CC3)nc21` — what was its pIC50?
Response: 9.52

Request: Sample `CC(C)n1c(=O)c(-c2ccc(NS(=O)(=O)C3CCC3)c(F)c2)nc2cnc(N[C@H]3CC[C@H](N(C)C)CC3)nc21` — what was its pIC50?
Response: 9.05

Request: Sample `CC(C)n1c(=O)c(-c2cc(F)c(NC(=O)[C@@H]3C[C@@H]3F)c(F)c2F)cc2cnc(N[C@H]3CC[C@H](N(C)C)CC3)nc21` — what was its pIC50?
Response: 8.80

Request: Sample `CC(C)n1c(=O)c(-c2ccc(NS(=O)(=O)Cc3ccccc3)c(F)c2)nc2cnc(N[C@H]3CC[C@H](N(C)C)CC3)nc21` — what was its pIC50?
Response: 9.89

Request: Sample CC(C)n1c(=O)c(-c2cc(F)c(NS(=O)(=O)CC3CCC3(F)F)c(F)c2)nc2cnc(N[C@H]3CC[C@H](N(C)C)CC3)nc21 (mixture of isomers) — what was its pIC50?
Response: 9.70

Request: Sample `CC(C)n1c(=O)c(-c2ccc(NS(=O)(=O)CCC(F)(F)F)c(F)c2)cc2cnc(N[C@H]3CC[C@H](N(C)C)[C@@H](O)C3)nc21` — what was its pIC50?
Response: 9.70
